system: ORYSAT (Rice, Tebonnet); assay: Flooded paddy, post-transplant rice tolerance; format: in vivo, Oryza sativa, (L.) Tebonnet; conditions: flooded paddy, post-transplant rice; rate 0.0080 kg/ha; rated 3-4 weeks after treatment; 0-9 rating scale
propertyMeasured: herbicidal rating, ORYSAT (rice tolerance)
// response body must contain only the number

q: Look up herbicidal rating, ORYSAT (rice tolerance) for this molecule: C[C@H]1OC(c2nsc3ccc(-n4c(=O)cc(C(F)(F)F)n(C)c4=O)cc23)O[C@@H]1C [Compound 48]
a: 5.0

q: Look up herbicidal rating, ORYSAT (rice tolerance) for this molecule: COC(=O)COc1ccsc1-c1nsc2ccc(-n3c(=O)cc(C(F)(F)F)n(C)c3=O)cc12 [Compound 22]
a: 0.0

q: Look up herbicidal rating, ORYSAT (rice tolerance) for this molecule: C[C@@H]1OC(c2nsc3cc(F)c(-n4c(=O)cc(C(F)(F)F)n(C)c4=O)cc23)O[C@@H]1C (stereo partly drawn) [Compound 63]
a: 7.0

q: Look up herbicidal rating, ORYSAT (rice tolerance) for this molecule: Cn1c(C(F)(F)F)cc(=O)n(-c2ccc3snc(-c4sccc4Cl)c3c2)c1=O [Compound 52]
a: 1.0

q: Look up herbicidal rating, ORYSAT (rice tolerance) for this molecule: Cn1c(C(F)(F)F)cc(=O)n(-c2ccc3snc(C4SCCN4C(=O)c4ccccc4)c3c2)c1=O (stereo not drawn) [Compound 30]
a: 0.0

q: Look up herbicidal rating, ORYSAT (rice tolerance) for this molecule: CCCC1COC(c2nsc3ccc(-n4c(=O)cc(C(F)(F)F)n(C)c4=O)cc23)O1 (stereo not drawn) [Compound 77]
a: 0.0

q: Look up herbicidal rating, ORYSAT (rice tolerance) for this molecule: Cn1c(C(F)(F)F)cc(=O)n(-c2ccc3snc(C4OC(C)(C)C(C)(C)O4)c3c2)c1=O [Compound 56]
a: 1.0

q: Look up herbicidal rating, ORYSAT (rice tolerance) for this molecule: CC1CCOC(c2nsc3ccc(-n4c(=O)cc(C(F)(F)F)n(C)c4=O)cc23)O1 (stereo not drawn) [Compound 37]
a: 5.0

q: Look up herbicidal rating, ORYSAT (rice tolerance) for this molecule: C=CC1COC(c2nsc3ccc(-n4c(=O)cc(C(F)(F)F)n(C)c4=O)cc23)O1 (stereo not drawn) [Compound 76]
a: 2.0

q: Look up herbicidal rating, ORYSAT (rice tolerance) for this molecule: Cc1cscc1-c1nsc2ccc(-n3c(=O)cc(C(F)(F)F)n(C)c3=O)cc12 [Compound 26]
a: 0.0

q: Look up herbicidal rating, ORYSAT (rice tolerance) for this molecule: C[C@@H]1C[C@H](C)OC(c2nsc3cc(F)c(-n4c(=O)cc(C(F)(F)F)n(C)c4=O)cc23)O1 (stereo partly drawn) [Compound 67]
a: 5.5

q: Look up herbicidal rating, ORYSAT (rice tolerance) for this molecule: Cn1c(C(F)(F)F)cc(=O)n(-c2ccc3snc(C4OCC5(CO4)CO5)c3c2)c1=O (stereo not drawn) [Compound 70]
a: 0.0

----------
test system: GLXMAW (Soybean, Williams); experiment: Postemergence herbicidal evaluation; format: in vivo, Glycine max, (L.) Merr. cv Williams; details: rate 0.0320 kg/ha
Rule for this label: true means Postemergence herbicidal rating, GLXMAW is less than 7; false means Postemergence herbicidal rating, GLXMAW is at least 7.

q: Below 7 on Postemergence herbicidal rating, GLXMAW? Entry Cc1cc(C)c(-c2nsc3ccc(-n4c(=O)cc(C(F)(F)F)n(C)c4=O)cc23)s1 [Compound 27]
a: true

q: Below 7 on Postemergence herbicidal rating, GLXMAW? Entry Cn1c(C(F)(F)F)cc(=O)n(-c2ccc3snc(C4OCCCS4)c3c2)c1=O (stereo not drawn) [Compound 34]
a: false

q: Below 7 on Postemergence herbicidal rating, GLXMAW? Entry C[C@H]1OC(c2nsc3ccc(-n4c(=O)cc(C(F)(F)F)n(C)c4=O)cc23)O[C@@H]1C [Compound 48]
a: false

q: Below 7 on Postemergence herbicidal rating, GLXMAW? Entry COC(=O)C(C)Oc1ccsc1-c1nsc2ccc(-n3c(=O)cc(C(F)(F)F)n(C)c3=O)cc12 (stereo not drawn) [Compound 23]
a: true

q: Below 7 on Postemergence herbicidal rating, GLXMAW? Entry COC(=O)COc1ccsc1-c1nsc2ccc(-n3c(=O)cc(C(F)(F)F)n(C)c3=O)cc12 [Compound 22]
a: true
